tested on: ATP; assay: switch fluorescence ratio, 500 uM ATP over buffer (Cy3 cluster intensity, sum of 5 cycles each) (fold (ratio)); higher = stronger signal-on switching upon ATP binding; sequences stand for … in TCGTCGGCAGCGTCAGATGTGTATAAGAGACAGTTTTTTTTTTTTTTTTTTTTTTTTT…TC; conditions: aptamer strand: ATP DNA aptamer (quencher-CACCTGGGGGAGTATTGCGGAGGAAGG + anchor), 100 nM annealed; ATP concentration: 500 uM;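 further: ATP exposure 15 min at 22 °C before imaging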
READOUT_NAME: switch fluorescence ratio

Completed entries (count: 8):
{"SEQUENCE_DATA": "CGTGATTCAC", "DATA_VALUE": 1.01}
{"SEQUENCE_DATA": "ACGACTGTAG", "DATA_VALUE": 1.02}
{"SEQUENCE_DATA": "TTTCTAGGGG", "DATA_VALUE": 1.01}
{"SEQUENCE_DATA": "AGGGAGGGGT", "DATA_VALUE": 0.983}
{"SEQUENCE_DATA": "TACCATGGTT", "DATA_VALUE": 0.984}
{"SEQUENCE_DATA": "TGTTGCAAGT", "DATA_VALUE": 0.976}
{"SEQUENCE_DATA": "CATTGAAAGA", "DATA_VALUE": 1.01}
{"SEQUENCE_DATA": "GGGGTATCAT", "DATA_VALUE": 0.983}

Q: What switch fluorescence ratio appears in the records for this sequence with ATP? TGGGGCACGG
Ans: 1.09

###

test system: ATP; experiment: switch fluorescence ratio, 500 uM ATP over buffer (Cy3 cluster intensity, sum of 5 cycles each) (fold (ratio)); higher = stronger signal-on switching upon ATP binding; sequences stand for … in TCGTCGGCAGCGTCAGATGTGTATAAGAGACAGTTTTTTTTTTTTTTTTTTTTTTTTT…TC; conditions: aptamer strand: ATP DNA aptamer (quencher-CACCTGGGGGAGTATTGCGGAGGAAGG + anchor), 100 nM annealed; ATP concentration: 500 uM;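 further: ATP exposure 15 min at 22 °C before imaging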
READOUT_NAME: switch fluorescence ratio
Lab note: record just the number, no unit beside it.

{"SEQUENCE_DATA": "ACTTGAGTTT", "switch fluorescence ratio": 0.988}
{"SEQUENCE_DATA": "TTACGGGGCA", "switch fluorescence ratio": 1.04}

Q: Quick one: switch fluorescence ratio of TGGCGAAGTA ?
Ans: 1.01

Q: Moving on to TTTTGTTTCT
Ans: 0.992

Q: Moving on to AGGAAGCGGT
Ans: 0.958

Q: Moving on to AAATATTATA
Ans: 1.02

Q: Moving on to AGTGTCCAGT
Ans: 1

Q: Moving on to TTGGGGGTAA
Ans: 0.987

Q: Moving on to TTCGGGGGT
Ans: 0.983

Q: Moving on to ATGATTTACT
Ans: 1.02

Q: Moving on to AGGGCGCGTT
Ans: 0.965

Q: Moving on to AAGGGCCGTG
Ans: 1.02

Q: Moving on to TGTATATCTA
Ans: 1.02

###

tested on: ATP; assay: switch fluorescence ratio, 500 uM ATP over buffer (Cy3 cluster intensity, sum of 5 cycles each) (fold (ratio)); higher = stronger signal-on switching upon ATP binding; sequences stand for … in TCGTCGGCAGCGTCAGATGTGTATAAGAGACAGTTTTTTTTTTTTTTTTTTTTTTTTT…TC; conditions: aptamer strand: ATP DNA aptamer (quencher-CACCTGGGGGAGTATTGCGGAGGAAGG + anchor), 100 nM annealed; ATP concentration: 500 uM;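 further: ATP exposure 15 min at 22 °C before imaging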
READOUT_NAME: switch fluorescence ratio
Lab note: record just the number, no unit beside it.

Completed entries (count: 10):
{"SEQUENCE_DATA": "TGGCCGGCTG", "switch fluorescence ratio": 1}
{"SEQUENCE_DATA": "GGGTGGTGTG", "switch fluorescence ratio": 0.99}
{"SEQUENCE_DATA": "GCTCGTTTGG", "switch fluorescence ratio": 0.974}
{"SEQUENCE_DATA": "GTAGTTTTAC", "switch fluorescence ratio": 1.04}
{"SEQUENCE_DATA": "GGTTGAAGAG", "switch fluorescence ratio": 0.955}
{"SEQUENCE_DATA": "GGAGGGCACG", "switch fluorescence ratio": 0.967}
{"SEQUENCE_DATA": "AAGAGTTCTT", "switch fluorescence ratio": 1.01}
{"SEQUENCE_DATA": "AGGTGCCTG", "switch fluorescence ratio": 0.971}
{"SEQUENCE_DATA": "TTTCTGGCTA", "switch fluorescence ratio": 1.08}
{"SEQUENCE_DATA": "GATTATCATT", "switch fluorescence ratio": 0.967}

Q: Quick one: switch fluorescence ratio of ACAGGGGGTG ?
Ans: 1.07

Q: Moving on to AAACCGGGGG
Ans: 1.1

Q: Moving on to GTGGGTATTA
Ans: 1

Q: Moving on to TTTGACTATG
Ans: 0.999

Q: Moving on to ATTAAGGTAA
Ans: 1.01

###

Recorded switch fluorescence ratio values for a group of sequences are listed next.
tested on: ATP; experiment: switch fluorescence ratio, 500 uM ATP over buffer (Cy3 cluster intensity, sum of 5 cycles each) (fold (ratio)); higher = stronger signal-on switching upon ATP binding; sequences stand for … in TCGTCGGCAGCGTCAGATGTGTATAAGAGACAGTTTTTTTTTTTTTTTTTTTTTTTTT…TC; conditions: aptamer strand: ATP DNA aptamer (quencher-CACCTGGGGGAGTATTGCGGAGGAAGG + anchor), 100 nM annealed; ATP concentration: 500 uM;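 further: ATP exposure 15 min at 22 °C before imaging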
Lab note: record just the number, no unit beside it.

Completed entries (count: 5):
{"SEQUENCE_DATA": "TAGAGACTGA", "switch fluorescence ratio": 1.02}
{"SEQUENCE_DATA": "TGAGATGGTC", "switch fluorescence ratio": 1}
{"SEQUENCE_DATA": "TTAGGATTTT", "switch fluorescence ratio": 1.01}
{"SEQUENCE_DATA": "TCGGGGCAG", "switch fluorescence ratio": 0.976}
{"SEQUENCE_DATA": "TAATTATAGC", "switch fluorescence ratio": 1.05}

Q: Quick one: switch fluorescence ratio of AAAATCTAAA ?
Ans: 1.01

Q: Moving on to AATTTAAAGC
Ans: 1.03

###

system: ATP; experiment: switch fluorescence ratio, 500 uM ATP over buffer (Cy3 cluster intensity, sum of 5 cycles each) (fold (ratio)); higher = stronger signal-on switching upon ATP binding; sequences stand for … in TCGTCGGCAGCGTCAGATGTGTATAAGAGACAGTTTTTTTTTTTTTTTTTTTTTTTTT…TC; details: aptamer strand: ATP DNA aptamer (quencher-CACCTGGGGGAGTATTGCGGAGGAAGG + anchor), 100 nM annealed; ATP concentration: 500 uM;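 further: ATP exposure 15 min at 22 °C before imaging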
READOUT_NAME: switch fluorescence ratio
Lab note: record just the number, no unit beside it.

Completed entries (count: 6):
{"SEQUENCE_DATA": "TGGGATACGG", "DATA_VALUE": 1.61}
{"SEQUENCE_DATA": "TTCTTCGACA", "DATA_VALUE": 1.08}
{"SEQUENCE_DATA": "ATAAAATAAT", "DATA_VALUE": 0.977}
{"SEQUENCE_DATA": "ACTTGCTATA", "DATA_VALUE": 1.06}
{"SEQUENCE_DATA": "GCATCAAAGG", "DATA_VALUE": 0.995}
{"SEQUENCE_DATA": "CAGTGACTTT", "DATA_VALUE": 1.02}

Q: Quick one: switch fluorescence ratio of AGAGGGCTAT ?
Ans: 0.989

Q: Moving on to ATGGTGGGAG
Ans: 0.992

Q: Moving on to TAAAAATTGG
Ans: 0.997

Q: Moving on to TCAAATAGTT
Ans: 0.997

Q: Moving on to AATGCCAGGG
Ans: 1.02

Q: Moving on to TTTGGCTTTT
Ans: 1.06

Q: Moving on to GCTTGTAGGG
Ans: 0.969

Q: Moving on to CTTGTGCTTG
Ans: 1.01

Q: Moving on to AGACGGCAGC
Ans: 0.992

Q: Moving on to TTAGCTTCTT
Ans: 1.07

Q: Moving on to CTGAGGATCG
Ans: 0.994

Q: Moving on to GATGGTAGCT
Ans: 1.04

Q: Moving on to GCGTACCAAT
Ans: 1.07

Q: Moving on to ACTTCAGGGG
Ans: 1.13

Q: Moving on to ATCCTAAATT
Ans: 1.02

Q: Moving on to TTTTCGTTGT
Ans: 0.996

Q: Moving on to GGGGTTTCCG
Ans: 0.999

Q: Moving on to GCAACCGAGG
Ans: 1.04

Q: Moving on to TACGGGGG
Ans: 1.01

Q: Moving on to CAATGTGGCG
Ans: 0.922

Q: Moving on to ATATTCATCT
Ans: 0.986
